Values were extracted from patent US20130310379A1.

Listing: pIC50 of selected compounds
# MEASURED_ON: UniProt:Q15910
# Sequence (Q15910 whole entry): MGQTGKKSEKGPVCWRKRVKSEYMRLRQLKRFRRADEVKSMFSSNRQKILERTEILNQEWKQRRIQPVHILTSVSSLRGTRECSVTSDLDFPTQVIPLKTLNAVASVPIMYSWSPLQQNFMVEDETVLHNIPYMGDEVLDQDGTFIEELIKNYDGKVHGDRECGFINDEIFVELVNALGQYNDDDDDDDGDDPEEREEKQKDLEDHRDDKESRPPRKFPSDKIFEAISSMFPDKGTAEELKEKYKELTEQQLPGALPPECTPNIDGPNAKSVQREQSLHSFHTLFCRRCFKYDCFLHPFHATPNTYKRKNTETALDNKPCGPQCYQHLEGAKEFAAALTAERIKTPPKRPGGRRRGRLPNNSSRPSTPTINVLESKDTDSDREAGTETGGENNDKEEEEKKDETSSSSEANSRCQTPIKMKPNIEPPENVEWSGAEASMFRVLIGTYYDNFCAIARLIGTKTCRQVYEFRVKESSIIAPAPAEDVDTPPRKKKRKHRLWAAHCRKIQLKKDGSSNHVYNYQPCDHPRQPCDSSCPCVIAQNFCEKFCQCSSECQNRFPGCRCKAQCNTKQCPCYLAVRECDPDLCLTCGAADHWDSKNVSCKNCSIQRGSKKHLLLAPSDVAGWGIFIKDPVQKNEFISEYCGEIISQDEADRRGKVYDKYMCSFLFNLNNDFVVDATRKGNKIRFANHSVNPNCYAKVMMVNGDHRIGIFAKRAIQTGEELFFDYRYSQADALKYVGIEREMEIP
# Sequence (O75530 whole entry partner): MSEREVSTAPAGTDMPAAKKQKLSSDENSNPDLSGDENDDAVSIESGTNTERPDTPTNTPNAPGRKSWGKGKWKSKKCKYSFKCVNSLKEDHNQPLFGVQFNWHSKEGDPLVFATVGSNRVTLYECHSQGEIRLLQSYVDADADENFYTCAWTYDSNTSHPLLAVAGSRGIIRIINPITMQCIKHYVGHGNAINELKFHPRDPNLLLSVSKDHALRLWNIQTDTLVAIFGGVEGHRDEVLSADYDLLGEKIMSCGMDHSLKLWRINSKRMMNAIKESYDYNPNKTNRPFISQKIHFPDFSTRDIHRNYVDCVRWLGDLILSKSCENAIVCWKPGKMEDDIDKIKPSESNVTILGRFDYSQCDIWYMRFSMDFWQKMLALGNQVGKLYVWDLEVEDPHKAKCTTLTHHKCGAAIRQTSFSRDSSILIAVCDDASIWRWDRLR
# Sequence (Q15022 whole entry partner): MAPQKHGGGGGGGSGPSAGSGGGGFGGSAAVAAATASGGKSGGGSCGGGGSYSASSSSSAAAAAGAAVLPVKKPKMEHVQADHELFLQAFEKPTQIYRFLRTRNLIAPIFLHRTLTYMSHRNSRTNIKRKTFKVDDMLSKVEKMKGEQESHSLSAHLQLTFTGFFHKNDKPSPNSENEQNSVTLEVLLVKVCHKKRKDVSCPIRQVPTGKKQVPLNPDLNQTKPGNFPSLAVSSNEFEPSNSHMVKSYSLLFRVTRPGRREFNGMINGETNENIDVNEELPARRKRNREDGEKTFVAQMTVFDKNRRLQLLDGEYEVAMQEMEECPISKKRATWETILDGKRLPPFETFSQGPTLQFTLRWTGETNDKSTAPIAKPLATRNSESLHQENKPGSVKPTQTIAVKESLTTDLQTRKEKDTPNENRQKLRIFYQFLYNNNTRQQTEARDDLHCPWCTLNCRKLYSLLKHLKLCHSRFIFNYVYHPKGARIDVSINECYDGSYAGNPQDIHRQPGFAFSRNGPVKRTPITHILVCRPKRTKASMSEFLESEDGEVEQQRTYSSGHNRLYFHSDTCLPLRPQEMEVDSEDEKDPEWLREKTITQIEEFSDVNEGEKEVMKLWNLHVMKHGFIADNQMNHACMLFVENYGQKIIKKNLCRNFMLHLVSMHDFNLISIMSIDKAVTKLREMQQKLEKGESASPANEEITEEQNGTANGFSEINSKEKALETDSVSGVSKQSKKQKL
# TEST_DESCRIPTION: EZH2 assay: rPRC2 with biotinylated oligonucleosome substrates and 3H SAM, FlashPlate scintillation counting, IC50
# Type: biochemical
# CONDITION: rPRC2, biotinylated oligonucleosome substrates, 3H SAM; read-out: EZH2 IC50
pIC50: −log10 of the molar value.

• CC1(C)CC(NC(=O)c2ccc(Oc3cccc4c[nH]c(=O)cc34)cc2)CC(C)(C)N1 [Compound I-370] = 4.10 to 4.70

# return pIC50 of CC(Oc1ccccc1)c1ccc(C(=O)NC2CC(C)(C)NC(C)(C)C2)cc1 (stereo not shown) [Compound I-118] (system: UniProt:Q15910)
< 4.10

Given CC1(C)CC(NC(=O)c2ccc(COc3cccc(N4CCOCC4)c3)cc2)CC(C)(C)N1 [Compound I-164] , report its pIC50 on UniProt:Q15910.
< 4.10

Identify measured pIC50 obtained with UniProt:Q15910 for CC1(C)CC(NC(=O)c2ccc(Oc3cccc(-c4ccncn4)c3C#N)c(Cl)c2)CC(C)(C)N1 [Compound I-480] .
> 5.30

# return pIC50 for CC1(C)CC(NC(=O)c2ccc(O[C@H]3CCNC3=O)c(Cl)c2)CC(C)(C)N1 [Compound I-457] , test system: UniProt:Q15910
< 4.10

Report value: pIC50, system: UniProt:Q15910, compound: Cc1cc(C(=O)NC2CC(C)(C)NC(C)(C)C2)ccc1Oc1cccc(-c2ccnnc2)c1C#N [Compound I-508]
> 5.30

Give reported pIC50 for CC1(C)CC(NC(=O)c2ccc(N3CCc4cccc(O)c4C3=O)c(Cl)c2)CC(C)(C)N1 [Compound I-498] (UniProt:Q15910)
4.70 to 5.30

----------
Recorded pIC50 for the following compounds
# MEASURED_ON: UniProt:Q15910
# TEST_DESCRIPTION: EZH2 assay: rPRC2 with biotinylated oligonucleosome substrates and 3H SAM, FlashPlate scintillation counting, IC50
# Assay type: biochemical
# CONDITION: rPRC2, biotinylated oligonucleosome substrates, 3H SAM; read-out: EZH2 IC50
pIC50: −log10 of the molar value.

- CN(C(=O)c1ccc(Oc2ccccc2)cc1)C1CCNCC1 [Compound I-125, 2,2,2-trifluoroacetate]: < 4.10

State measured pIC50 of the compound Cc1ccc(-c2cccc(Oc3ccc(C(=O)NC4CC(C)(C)NC(C)(C)C4)cc3Cl)c2C#N)cn1 [Compound I-362] with UniProt:Q15910.
> 5.30

Please look at CC1(C)CC(N2Cc3cc(Oc4ccccc4C#N)c(Cl)cc3C2=O)CC(C)(C)N1 [Compound I-356] and tell me its recorded pIC50 on UniProt:Q15910.
< 4.10

Write down the reported pIC50 (system: UniProt:Q15910) of CC1(C)CC(NC(=O)c2ccc(Oc3ccccc3)c(F)c2)CC(C)(C)N1 [Compound I-148]
4.70 to 5.30

Report the value of pIC50 obtained on UniProt:Q15910 for N#Cc1ccccc1Oc1ccc(C(=O)NC2CCN(c3cccnc3)CC2)cc1Cl [Compound I-368] .
< 4.10

Identify measured pIC50 obtained with UniProt:Q15910 for CC1(C)CC(NC(=O)c2ccc(Oc3cccc(CN4CCCCC4)c3C#N)cc2)CC(C)(C)N1 [Compound I-283] .
4.70 to 5.30

Please tell me the measured pIC50 for Cc1cccc(OCc2ccc(C(=O)NC3CC(C)(C)NC(C)(C)C3)cc2)c1C [Compound I-54] ; system: UniProt:Q15910.
4.10 to 4.70

Jot down pIC50 (UniProt:Q15910) of CC1(C)CC(NC(=O)c2ccc(Oc3cccc(C4CCNCC4)c3C#N)c(Cl)c2)CC(C)(C)N1 [Compound I-535] .
> 5.30

Fetch value of pIC50 on UniProt:Q15910 for O=C(NCc1ccccc1)c1ccc(Oc2ccccc2)cc1 [Compound I-141] .
< 4.10

Look up UniProt:Q15910 data: pIC50 of CC1(C)CC(OC(=O)c2ccc(Oc3cccc(-c4ccnnc4)c3C#N)c(Cl)c2)CC(C)(C)N1 [Compound I-504] , then report it.
> 5.30

Report pIC50 on UniProt:Q15910 for this entry: COCc1cccc(Oc2ccc(C(=O)NC3CC(C)(C)NC(C)(C)C3)cc2Cl)c1C#N [Compound I-453]
> 5.30

Lab note: record pIC50 of CC(C)c1cc(C(=O)NC2CC(C)(C)NC(C)(C)C2)ccc1Oc1ccccc1C#N [Compound I-237] tested on UniProt:Q15910.
> 5.30

Jot down pIC50 (UniProt:Q15910) of CC1(C)CC(NC(=O)c2ccc(Oc3cccc(Br)c3)cc2)CC(C)(C)N1 [Compound I-180] .
4.10 to 4.70

Determine reported pIC50 for CC1(C)CC(NC(=O)N2CCC(Oc3cccc(-c4cn[nH]c4)c3C#N)CC2)CC(C)(C)N1 [Compound I-429] ; test system: UniProt:Q15910.
4.10 to 4.70

With UniProt:Q15910 as the test system, provide measured pIC50 for this compound: CCc1cccc(Oc2ccc(C(=O)NC3CC(C)(C)NC(C)(C)C3)cc2Cl)c1-c1cccnc1 [Compound I-343]
4.10 to 4.70

Quote pIC50 with test system UniProt:Q15910 for Cc1ccncc1-c1ccccc1Oc1ccc(C(=O)NC2CC(C)(C)NC(C)(C)C2)cc1Cl [Compound I-297]
4.70 to 5.30

Report pIC50 on UniProt:Q15910 for this entry: CC1(C)CC(NC(=O)c2ccc(Oc3cccc(C(F)(F)F)c3C#N)c(Cl)c2)CC(C)(C)N1 [Compound I-311]
> 5.30

Name the recorded pIC50 of CC1(C)CC(NC(=O)c2ccc(Oc3ccccc3-c3cccnc3)c(Cl)c2)CC(C)(C)N1 [Compound I-207] , assay system UniProt:Q15910.
> 5.30
